# test-target: the molecule itself
# protocol-details: λ cI repressor fusion dimerization assay
measurement-label: % repression of λpR-lacZ (%)
Return type: number; implicit unit %.

Query block: Name the recorded % repression of λpR-lacZ for λcIDB-AaTadZ A155K (natural protein) MLLLDQETITADSARTITVVSSRDDIQGEVAQTLRTRGLENIEIVKKDFFTSSDEISFSAEDTVGVIIDITHETNIKTIVERVFSVVPQNVWCCVIGDSDSISLSQKLLDEGILYFNSHTQLSQMVEKIILGVDIPRLRDTVKIAVLSCKGGIGKSLISSHIANEIVSSKKIPVLLAQGPNGSQDLDLLFDKKLSGNVIEYAPNLDIFNGGLFELTPAATEKYNFIIYDQPIYNVKKDNFIGFLENYNNFVLVVERKIGSLRLAKQFLDECERIRSTSRKPIRTFVCISDNRLEAAKLMAKNDIETLIGSSIDAIIPYVKNTNTKTVLGINLGRDGKKEINSLMLKVIGAISRSSKPKEKQSLFSSFFTKLIKQ .
Result block: 49.7
